- Test system: Giardia intestinalis
- ASSAY_COMMENT: Antiprotozoal activity against Giardia intestinalis IMSS:0981:1 trophozoites after 48 hrs
- Assay type: functional, organism-based
- EXPERIMENTAL_PARAMETERS: Giardia duodenalis
pIC50: −log10 of the molar value.
METRIC: pIC50

1) CN(C)C(=O)c1nc2ccccc2n1C : 6.29
2) Cn1c(C(N)=O)nc2cc(Cl)c(Cl)cc21 : 6.34
3) CC(O)c1nc2cc(Cl)c(Cl)cc2n1C (centres undefined) : 7.69
4) CC(=O)c1nc2cc(Cl)ccc2n1C : 7.30
5) CC(O)c1nc2ccccc2n1C (centres undefined) : 7.17
6) Cn1c(C(N)=O)nc2ccccc21 : 7.03
7) CNC(=O)c1nc2cc(Cl)c(Cl)cc2n1C : 6.82
8) CNC(=O)c1nc2cc(Cl)ccc2n1C : 6.45
9) Cn1c(C(N)=O)nc2ccc(Cl)cc21 : 7.12
10) CNC(=O)c1nc2ccc(Cl)cc2n1C : 7.15
11) CC(=O)c1nc2ccc(Cl)cc2n1C : 7.17
12) CC(O)c1nc2cc(Cl)ccc2n1C (centres undefined) : 7.42
13) Cn1c(C(N)=O)nc2cc(Cl)ccc21 : 6.63
14) CN(C)C(=O)c1nc2ccc(Cl)cc2n1C : 7.40
15) CCOC(=O)c1nc2ccc(Cl)cc2n1C : 7.32
16) CN(C)C(=O)c1nc2cc(Cl)c(Cl)cc2n1C : 7.13
17) CCOC(=O)c1nc2cc(Cl)c(Cl)cc2n1C : 7.56
18) CC(=O)c1nc2ccccc2n1C : 7.06
19) CCOC(=O)c1nc2cc(Cl)ccc2n1C : 7.40
20) CC(=O)c1nc2cc(Cl)c(Cl)cc2n1C : 7.46
21) CN(C)C(=O)c1nc2cc(Cl)ccc2n1C : 6.61
22) CC(O)c1nc2ccc(Cl)cc2n1C (centres undefined) : 7.15
23) CNC(=O)c1nc2ccccc2n1C : 7.22
24) CCOC(=O)c1nc2ccccc2n1C : 7.16

Hello, the source for this data is ChEMBL document CHEMBL1152735, in case you need it.
